// values below are reported yeast surface expression
B1: scFv; the commonest letter at each place (parent)
chain 1: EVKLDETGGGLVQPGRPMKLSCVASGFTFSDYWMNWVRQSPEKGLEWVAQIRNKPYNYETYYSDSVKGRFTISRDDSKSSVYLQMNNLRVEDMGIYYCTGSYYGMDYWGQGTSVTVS
chain 2: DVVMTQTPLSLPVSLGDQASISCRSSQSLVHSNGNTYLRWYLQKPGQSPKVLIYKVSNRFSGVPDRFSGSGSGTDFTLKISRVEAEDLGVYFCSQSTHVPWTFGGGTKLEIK

- Variants of: B1
- protocol-summary: yeast surface expression (ratio to wild type); higher = more expressed
- protocol-conditions: format: scFv 4-4-20, heavy + light
reported-metric: yeast surface expression

[[record]]
mutations = "chain 1 W33P M34H"
data_value = 0.508

[[record]]
mutations = "chain 1 M34N N35V"
data_value = 0.505

[[record]]
mutations = "chain 1 G100W G104L W108M"
data_value = 0.108

[[record]]
mutations = "chain 1 M34W"
data_value = 0.869

[[record]]
mutations = "chain 1 Y103P G109S"
data_value = 0.828

[[record]]
mutations = "chain 1 D31H"
data_value = 0.763

[[record]]
mutations = "chain 1 S30R N35F"
data_value = 0.413

[[record]]
mutations = "chain 1 Y32D"
data_value = 1.04

[[record]]
mutations = "chain 1 V37R"
data_value = 0.716

[[record]]
mutations = "chain 1 F29T M34N"
data_value = 0.548

[[record]]
mutations = "chain 1 W33M V37E"
data_value = 0.701

[[record]]
mutations = "chain 1 T28I W36A"
data_value = 0.354

[[record]]
mutations = "chain 1 N35K V37S"
data_value = 0.732

[[record]]
mutations = "chain 1 G104I M105S"
data_value = 0.592

[[record]]
mutations = "chain 1 Y103T G104Q"
data_value = 0.9

[[record]]
mutations = "chain 1 D31G V37N"
data_value = 0.512

[[record]]
mutations = "chain 1 S101D D106C W108N"
data_value = 0.369

[[record]]
mutations = "chain 1 Y103F W108Q"
data_value = 0.382

[[record]]
mutations = "chain 1 D31S Y32F"
data_value = 0.876

[[record]]
mutations = "chain 1 Y102K G109Y"
data_value = 0.342

[[record]]
mutations = "chain 1 T28Y N35E"
data_value = 0.319

[[record]]
mutations = "chain 1 G100V Y107H"
data_value = 0.772

[[record]]
mutations = "chain 1 T28K M34V"
data_value = 0.867

[[record]]
mutations = "chain 1 G100T D106V"
data_value = 0.468

[[record]]
mutations = "chain 1 Y102S D106R"
data_value = 0.499

[[record]]
mutations = "chain 1 G100F G109V"
data_value = 0.253

[[record]]
mutations = "chain 1 M34P N35L"
data_value = 0.779

[[record]]
mutations = "chain 1 G100C S101C"
data_value = 0.624

[[record]]
mutations = "chain 1 W33Y N35R"
data_value = 0.524

[[record]]
mutations = "chain 1 Y103M D106G"
data_value = 0.479

[[record]]
mutations = "chain 1 Y103S D106H"
data_value = 0.542

[[record]]
mutations = "chain 1 T28Q V37L"
data_value = 0.864

[[record]]
mutations = "chain 1 W33Q"
data_value = 1.01

[[record]]
mutations = "chain 1 D31N Y32M"
data_value = 0.945

[[record]]
mutations = "chain 1 G100M Y107T"
data_value = 0.729

[[record]]
mutations = "chain 1 S101E W108K"
data_value = 0.375

[[record]]
mutations = "chain 1 G104A D106Q"
data_value = 0.575

[[record]]
mutations = "chain 1 G104R D106M"
data_value = 0.275

[[record]]
mutations = "chain 1 T28D S30P"
data_value = 1.24

[[record]]
mutations = "chain 1 Y103D D106R"
data_value = 0.454

[[record]]
mutations = "chain 1 S30A V37R"
data_value = 1.16

[[record]]
mutations = "chain 1 G104P Y107M G109M"
data_value = 0.257

[[record]]
mutations = "chain 1 G100V G104F"
data_value = 0.472

[[record]]
mutations = "chain 1 T28F V37P"
data_value = 0.417

[[record]]
mutations = "chain 1 S30K W33L"
data_value = 0.749

[[record]]
mutations = "chain 1 S101F M105G"
data_value = 0.559

[[record]]
mutations = "chain 1 G100N S101C"
data_value = 0.234

[[record]]
mutations = "chain 1 Y102M Y107S"
data_value = 0.685

[[record]]
mutations = "chain 1 D31R Y32K V37Y"
data_value = 1.3

[[record]]
mutations = "chain 1 G100N D106I"
data_value = 0.203

[[record]]
mutations = "chain 1 D31Y N35I"
data_value = 0.469

[[record]]
mutations = "chain 1 S30W W36D"
data_value = 0.104

[[record]]
mutations = "chain 1 F29I N35R"
data_value = 0.852

[[record]]
mutations = "chain 1 Y32R W33M"
data_value = 0.809

[[record]]
mutations = "chain 1 Y102T Y103R"
data_value = 1.21


Where do these numbers come from? They come from the FLAb antibody collection (doi:10.7554/elife.23156).
